Provenance of the data: ChEMBL document CHEMBL1201862

# System: HCT-116
# ASSAY PROCEDURE: NCI tumour cell line growth inhibition, 48 h
Activity calls are given as the source filed them. No stated cut-off is given here; in the data, active = GI50 up to about 1.1 µM and inactive = higher.

# COMPOUND, GI50
measured = [
    ("Cc1cccc(/C=N/NC(=S)NC2CCCCC2)n1", "4.02 µM (inactive)"),
    ("O=[N+]([O-])c1cc(C(F)(F)F)cc2c1SC1=Nc3ccccc3CN12", "> 100 µM (inactive)"),
    ("O=[N+]([O-])c1ccc(/N=N/N2CCCC2)cc1", "> 100 µM (inactive)"),
    ("O=C(CC(O)c1cccnc1)CC(O)c1cccnc1 (stereo unspecified)", "2.04 µM (inactive)"),
    ("COc1cc2cc(C(=O)N3C[C@@H](CCl)c4c3cc(N)c3ccccc43)[nH]c2c(OC)c1OC", "0.000301 µM (active)"),
    ("O=C1NC2NC3NC(=O)NC3NC2N1 (stereo unspecified)", "> 100 µM (inactive)"),
]
